Reference source for all entries: patent US10993957B2

- Test system: L1210.Hyor
- Method Description: Cytostatic assay, Mycoplasma hyorhinis-infected L1210 cells
- Assay Conditions: CC50 L1210 × 100 ÷ CC50 L1210/Hyor
Measured Metric: % Retention (%)
Write the value in % as a bare number.

Would you please look over these solved cases?
C[C@H](NP(=O)(OC[C@H]1O[C@@H](n2cc(F)c(=O)[nH]c2=O)CC1O)Oc1cccc2ccccc12)C(=O)OC1CCOCC1 (stereo partly drawn) [CPF 580] :: 12
O=C(OCc1ccccc1)[C@H](Cc1ccccc1)NP(=O)(OC[C@H]1O[C@@H](n2cc(F)c(=O)[nH]c2=O)CC1O)Oc1cccc2ccccc12 (stereo partly drawn) [CPF 587] :: 0.5
CSCC[C@H](NP(=O)(OC[C@H]1O[C@@H](n2cc(F)c(=O)[nH]c2=O)CC1O)Oc1ccccc1)C(=O)OCc1ccccc1 (stereo partly drawn) [CPF 586] :: 11
C[C@H](NP(=O)(OC[C@H]1O[C@@H](n2cc(F)c(=O)[nH]c2=O)CC1O)Oc1cccc2ccccc12)C(=O)OC1CCC1 (stereo partly drawn) [CPF 578] :: 31
CC(C)C(NP(=O)(OCC1OC(n2cc(F)c(=O)[nH]c2=O)CC1O)Oc1cccc2ccccc12)C(=O)OC1CCCCC1 (stereo not drawn) [CPF 576] :: 51

Next, consider the following compound.
Please fill in: % Retention reported for CCOC(=O)C(C)(C)NP(=O)(OC[C@H]1O[C@@H](n2cc(F)c(=O)[nH]c2=O)CC1O)Oc1ccccc1 (stereo partly drawn) [CPF 394] = 12

###

- Test system: L1210/0
- Method Description: Cytostatic assay, L1210/0 cells
- Type: cell-based, murine
- Assay Conditions: Mus musculus, L1210/0, Table 3; read-out: IC50 L1210/0
Measured Metric: IC50 (µM)
Write the value in µM as a bare number.

Please fill in: IC50 reported for C[C@H](NP(=O)(OC[C@H]1O[C@@H](n2cc(F)c(=O)[nH]c2=O)CC1O)Oc1cccc2ccccc12)C(=O)OCc1ccccc1 (stereo partly shown) [CPF 373] = 0.011

###

- Tested on: L1210.Hyor
- Method Description: Cytostatic assay, Mycoplasma hyorhinis-infected L1210 cells
- Assay Conditions: CC50 L1210 × 100 ÷ CC50 L1210/Hyor
Below: a set of entries, each annotated with reported % Retention.
Write the value in % as a bare number.

Would you please look over these solved cases?
C[C@H](NP(=O)(OC[C@H]1O[C@@H](n2cc(F)c(=O)[nH]c2=O)CC1O)Oc1cccc2ccccc12)C(=O)OC1CCCC1 (some centres unmarked) [CPF 582] :: 83
CCCCOC(=O)[C@H](C)NP(=O)(OC[C@H]1O[C@@H](n2cc(F)c(=O)[nH]c2=O)CC1O)Oc1cccc2ccccc12 (some centres unmarked) [CPF 589] :: 32
C[C@H](NP(=O)(OC[C@H]1O[C@@H](n2cc(F)c(=O)[nH]c2=O)CC1O)Oc1cccc2ccccc12)C(=O)OCCC(C)(C)C (some centres unmarked) [CPF 585] :: 41
O=c1[nH]c(=O)n([C@H]2C[C@H](O)[C@@H](CO)O2)cc1F [5-FdUrd, 5-fluoro-2′-deoxyuridine, reference compound] :: 0.2
CC(C)(NP(=O)(OCC1OC(n2cc(F)c(=O)[nH]c2=O)CC1O)Oc1cccc2ccccc12)C(=O)OCc1ccccc1 (centres unmarked) [CPF 395] :: 42
C[C@H](NP(=O)(OC[C@H]1O[C@@H](n2cc(F)c(=O)[nH]c2=O)CC1O)Oc1ccccc1)C(=O)OCc1ccccc1 (some centres unmarked) [CPF 381] :: 18
C[C@H](NP(=O)(OC[C@H]1O[C@@H](n2cc(F)c(=O)[nH]c2=O)CC1O)Oc1cccc2ccccc12)C(=O)OCC1CC1 (some centres unmarked) [CPF 579] :: 42
CCOC(=O)C(C)(C)NP(=O)(OC[C@H]1O[C@@H](n2cc(F)c(=O)[nH]c2=O)CC1O)Oc1cccc2ccccc12 (some centres unmarked) [CPF 396] :: 33
C[C@H](NP(=O)(OC[C@H]1O[C@@H](n2cc(F)c(=O)[nH]c2=O)CC1O)Oc1cccc2ccccc12)C(=O)OCC(C)(C)C (some centres unmarked) [CPF 588] :: 61
CC(C)(NP(=O)(OC[C@H]1O[C@@H](n2cc(F)c(=O)[nH]c2=O)CC1O)Oc1ccccc1)C(=O)OCc1ccccc1 (some centres unmarked) [CPF 393] :: 145

Please fill in: % Retention reported for O=C(OCc1ccccc1)C1CCCN1P(=O)(OC[C@H]1O[C@@H](n2cc(F)c(=O)[nH]c2=O)CC1O)Oc1cccc2ccccc12 (some centres unmarked) [CPF 577] = 36

Please fill in: % Retention reported for CCCCCOC(=O)[C@H](C)NP(=O)(OC[C@H]1O[C@@H](n2cc(F)c(=O)[nH]c2=O)CC1O)Oc1cccc2ccccc12 (some centres unmarked) [CPF 581] = 22

Please fill in: % Retention reported for C[C@H](NP(=O)(OC[C@H]1O[C@@H](n2cc(F)c(=O)[nH]c2=O)CC1O)Oc1cccc2ccccc12)C(=O)OCc1ccccc1 (some centres unmarked) [CPF 373] = 44

Please fill in: % Retention reported for O=C(OCc1ccccc1)C1CCCN1P(=O)(OC[C@H]1O[C@@H](n2cc(F)c(=O)[nH]c2=O)CC1O)Oc1ccccc1 (some centres unmarked) [CPF 583] = 3.3

###

Below: a set of entries, each annotated with reported pIC50.
- Test system: HeLa/TK^−
- Method Description: Cytostatic assay, HeLa/TK^− cells
- Type: cell-based
- Assay Conditions: Homo sapiens, HeLa; Table 6; read-out: IC50 HeLa/TK^−
- Excerpt: The cell lines employed were L1210/0 (a leukemia cell line), FM3A/0 (a breast cancer cell line), Cem/0 (an acute lymphoblastic leukemia cell line) and HeLa (a cervical cell line).
pIC50 here: minus log base 10 of the concentration, concentration in moles per litre.

CC(C)(NP(=O)(OC[C@H]1O[C@@H](n2cc(F)c(=O)[nH]c2=O)CC1O)Oc1ccccc1)C(=O)OCc1ccccc1 (stereo partly shown) :: 5.43
C[C@H](NP(=O)(OC[C@H]1O[C@@H](n2cc(F)c(=O)[nH]c2=O)CC1O)Oc1cccc2ccccc12)C(=O)OC1Cc2ccccc2C1 (stereo partly shown) :: 5.15

Next, consider the following compound.
Please fill in: pIC50 reported for O=c1[nH]cc(F)c(=O)[nH]1 [5-FU, 5-Fluorouracil, reference compound] = 6.64

###

Below: a set of entries, each annotated with reported IC50.
- Tested on: Cem/TK^−
- Method Description: Cytostatic assay, thymidine kinase-deficient CEM/TK^− cells
- Format: cell-based, human
- Assay Conditions: Table 6; read-out: IC50 Cem/TK^−
Write the value in µM as a bare number.

Please fill in: IC50 reported for CCCCCCOC(=O)C(C)NP(=O)(OCC1OC(n2cc(F)c(=O)[nH]c2=O)CC1O)Oc1cccc2ccccc12 (stereo not shown) [Nap Hex Ala] = 0.65

Please fill in: IC50 reported for CC(C)CC(NP(=O)(OCC1OC(n2cc(F)c(=O)[nH]c2=O)CC1O)Oc1cccc2ccccc12)C(=O)OCc1ccccc1 (stereo not shown) [Nap Bn Leu] = 30

Please fill in: IC50 reported for CCCCCOC(=O)C(CC(C)C)NP(=O)(OCC1OC(n2cc(F)c(=O)[nH]c2=O)CC1O)Oc1cccc2ccccc12 (stereo not shown) [Nap Pnt Leu] = 15

Please fill in: IC50 reported for C[C@H](NP(=O)(OC[C@H]1O[C@@H](n2cc(F)c(=O)[nH]c2=O)CC1O)Oc1ccccc1)C(=O)OCc1ccccc1 (stereo partly shown) [CPF 381] = 22

###

- System: L1210.Hyor
- Method Description: Cytostatic assay, Mycoplasma hyorhinis-infected L1210 cells
- Assay Conditions: Mus musculus, L1210, read-out: IC50 L1210.Hyor
Measured Metric: pIC50
pIC50 here: minus log base 10 of the concentration, concentration in moles per litre.

C[C@H](NP(=O)(OC[C@H]1O[C@@H](n2cc(F)c(=O)[nH]c2=O)CC1O)Oc1cccc2ccccc12)C(=O)OC1Cc2ccccc2C1 (stereo partly drawn) :: 7.38
CCOC(=O)[C@H](C)NP(=O)(OC[C@H]1O[C@@H](n2cc(F)c(=O)[nH]c2=O)CC1O)Oc1ccccc1 (stereo partly drawn) :: 6.27
CCOC(=O)C(C)(C)NP(=O)(OC[C@H]1O[C@@H](n2cc(F)c(=O)[nH]c2=O)CC1O)Oc1cccc2ccccc12 (stereo partly drawn) :: 6.77
C[C@H](NP(=O)(OC[C@H]1O[C@@H](n2cc(F)c(=O)[nH]c2=O)CC1O)Oc1cccc2ccccc12)C(=O)OC1CCOCC1 (stereo partly drawn) :: 6.32

Reported L1210.Hyor pIC50 for item COC(=O)[C@H](C)NP(=O)(OC[C@H]1O[C@@H](n2cc(F)c(=O)[nH]c2=O)CC1O)Oc1ccccc1 (stereo partly drawn) [CPF 382, reference compound] was 6.06

Reported L1210.Hyor pIC50 for item C[C@H](NP(=O)(OC[C@H]1O[C@@H](n2cc(F)c(=O)[nH]c2=O)CC1O)Oc1cccc2ccccc12)C(=O)OCc1ccccc1 (stereo partly drawn) was 7.60
